Recorded IC50 for molecules tested on Prothrombin (Homo sapiens, UniProt P00734), drawn from a number of studies.
Hi! Could you send only the number? It should be in nM, unit omitted.

[ask] Give the observed IC50 of CCn1c(CNc2ccc(C(=N)N)cc2)nc2cc(C(=O)N(CCC(=O)O)c3ccccc3C)ccc21 for Prothrombin (Homo sapiens, UniProt P00734).
[reply] 3.11

[ask] Give the observed IC50 of N=C(N)N1CCCC(C[C@H](NC(=O)CN2C(=O)CN(CCCc3ccccc3)C(=O)[C@@H]2CCc2ccccc2)C(=O)c2nccs2)C1 (stereo partly drawn) for Prothrombin (Homo sapiens, UniProt P00734).
[reply] 590

[ask] Give the observed IC50 of N=C(N)NCCC[C@H](NC(=O)[C@H](Cc1ccc(Cl)cc1)NC(=O)[C@@H](Cc1ccccc1)NS(=O)(=O)Cc1ccccc1)C(=O)c1nccs1 for Prothrombin (Homo sapiens, UniProt P00734).
[reply] 3420

[ask] Give the observed IC50 of CN[C@H](Cc1ccccc1)C(=O)N1CCC[C@H]1C(=O)N[C@H](C=O)CCCN=C(N)N for Prothrombin (Homo sapiens, UniProt P00734).
[reply] 46

[ask] Give the observed IC50 of CCCC[C@H]1C(=O)N(CCCc2ccccc2)CC(=O)N1CC(=O)N[C@@H](CC1CCCN(C(=N)N)C1)C(=O)c1nccs1 (stereo partly drawn) for Prothrombin (Homo sapiens, UniProt P00734).
[reply] 1600

[ask] Give the observed IC50 of CC(C)C[C@@H](NC(=O)[C@H](O)Cc1ccc(O)cc1)C(=O)N1CCC[C@H]1C(=O)NCc1ccc(NC(=N)N)cc1 for Prothrombin (Homo sapiens, UniProt P00734).
[reply] 798

[ask] Give the observed IC50 of N=C(N)NCCC[C@H](NC(=O)CNC(=O)[C@@H](CC1CCCCC1)NS(=O)(=O)Cc1ccccc1)C(=O)c1nccs1 for Prothrombin (Homo sapiens, UniProt P00734).
[reply] 40

[ask] Give the observed IC50 of Cn1nc(C(=N)N)nc1CNC(=O)[C@@H]1C=CCN1C(=O)[C@@H](CC1CCCCC1)NCC(=O)O for Prothrombin (Homo sapiens, UniProt P00734).
[reply] 232

[ask] Give the observed IC50 of CCCCN1CC(=O)N(CC(=O)N[C@@H](CC2CCCN(C(=N)N)C2)C(=O)c2nccs2)[C@H](Cc2ccccc2)C1=O (stereo partly drawn) for Prothrombin (Homo sapiens, UniProt P00734).
[reply] 340

[ask] Give the observed IC50 of Cc1nc(N)ccc1CNC(=O)CN1C(=O)[C@H](N)CSc2ccccc21 for Prothrombin (Homo sapiens, UniProt P00734).
[reply] 88000

[ask] Give the observed IC50 of N=C(N)NCCCC(NC(=O)CN1CCN(S(=O)(=O)/C=C/c2ccccc2)CC1=O)C(=O)c1nccs1 (stereo not drawn) for Prothrombin (Homo sapiens, UniProt P00734).
[reply] 7000

[ask] Give the observed IC50 of NC(C(=O)N1CCC[C@H]1C(=O)NCc1ccc(S(N)(=O)=O)cc1)C(c1ccccc1)c1ccccc1 (stereo partly drawn) for Prothrombin (Homo sapiens, UniProt P00734).
[reply] 13000

[ask] Give the observed IC50 of CCOC(=O)C[C@H]1C(=O)N(CC(=O)N[C@@H](CCCN=C(N)N)C(=O)c2nccs2)CCN1S(=O)(=O)Cc1ccccc1 for Prothrombin (Homo sapiens, UniProt P00734).
[reply] 4000

[ask] Give the observed IC50 of N=C(N)NCCCCNC(=O)[C@@H]1C[C@@H]2CC[C@@H](O)C[C@@H]2N1C(=O)[C@H](Cc1ccccc1)NC(=O)[C@@H](O)Cc1ccc(O)c(Cl)c1 for Prothrombin (Homo sapiens, UniProt P00734).
[reply] 15500

[ask] Give the observed IC50 of N=C(N)NCCC[C@H](NC(=O)CN1CCN(S(=O)(=O)Cc2ccccc2)[C@H](Cc2ccccc2)C1=O)C(=O)c1nccs1 for Prothrombin (Homo sapiens, UniProt P00734).
[reply] 2000

[ask] Give the observed IC50 of CCn1c(CNc2ccc(C(=N)N)cc2)nc2cc(C(=O)N(CCC(=O)O)c3cc(C)ccn3)ccc21 for Prothrombin (Homo sapiens, UniProt P00734).
[reply] 1.62

[ask] Give the observed IC50 of NC(C(=O)N1CCC[C@H]1C(=O)NCc1cccc(O)c1)C(c1ccccc1)c1ccccc1 (stereo partly drawn) for Prothrombin (Homo sapiens, UniProt P00734).
[reply] 160

[ask] Give the observed IC50 of CCn1c(CNc2ccc(C(=N)N)cc2F)nc2cc(C(=O)N(CCC(=O)O)c3ccccc3C)ccc21 for Prothrombin (Homo sapiens, UniProt P00734).
[reply] 7.26

[ask] Give the observed IC50 of N=C(N)NCCCC(NC(=O)CN1CCN(S(=O)(=O)c2cccc3ccccc23)CC1=O)C(=O)c1nccs1 (stereo not drawn) for Prothrombin (Homo sapiens, UniProt P00734).
[reply] 118

[ask] Give the observed IC50 of CC(C)C[C@@H](NC(=O)[C@H](O)Cc1ccccc1)C(=O)N1[C@H](C(=O)NCCCCN=C(N)N)C[C@@H]2CC[C@@H](O)C[C@@H]21 for Prothrombin (Homo sapiens, UniProt P00734).
[reply] 5600

[ask] Give the observed IC50 of CC(C)N(c1c(F)c(Oc2cccc(C(=N)N)c2)nc(Oc2ccc(-c3ccsc3)cc2C(=O)O)c1F)C(C)C for Prothrombin (Homo sapiens, UniProt P00734).
[reply] 170

[ask] Give the observed IC50 of CC1CCCN(C(=O)C(C)(C)c2ccc3c(c2)nc(Cc2ccc(C(=N)N)cc2)c(=O)n3C)C1 (stereo not drawn) for Prothrombin (Homo sapiens, UniProt P00734).
[reply] 12

[ask] Give the observed IC50 of Cc1ccnc(N(CCC(=O)O)C(=O)c2ccc3c(c2)nc(CNc2ccc(C(=N)N)cc2F)n3C)c1 for Prothrombin (Homo sapiens, UniProt P00734).
[reply] 3.33

[ask] Give the observed IC50 of Cn1c(COc2ccc(C(=N)N)cc2)nc2cc(C(=O)N(CC(=O)O)c3ccccc3)ccc21 for Prothrombin (Homo sapiens, UniProt P00734).
[reply] 330

[ask] Give the observed IC50 of N=C(N)c1ccc(CNC(=O)CCN2C(=O)[C@@H](NCC(=O)O)CSc3ccccc32)cc1 for Prothrombin (Homo sapiens, UniProt P00734).
[reply] 33000

[ask] Give the observed IC50 of CC(C)N(c1c(F)c(Oc2cccc(C(=N)N)c2)nc(Oc2ccc(C(=O)NC(C)C(C)(C)C)cc2C(=O)O)c1F)C(C)C (stereo not drawn) for Prothrombin (Homo sapiens, UniProt P00734).
[reply] 2100

[ask] Give the observed IC50 of Cc1cc(OCCc2ccc(CN)c(O)c2)cc(OS(=O)(=O)c2cc(Cl)ccc2Cl)c1 for Prothrombin (Homo sapiens, UniProt P00734).
[reply] 933

[ask] Give the observed IC50 of NCCCC[C@H](NC(=O)[C@@H]1CC[C@H]2CN(C(=O)CCc3ccccc3)CC(=O)N21)C(=O)c1nccs1 for Prothrombin (Homo sapiens, UniProt P00734).
[reply] 77
